tgt: Matrilysin (Homo sapiens)
Sequence (P09237 whole entry): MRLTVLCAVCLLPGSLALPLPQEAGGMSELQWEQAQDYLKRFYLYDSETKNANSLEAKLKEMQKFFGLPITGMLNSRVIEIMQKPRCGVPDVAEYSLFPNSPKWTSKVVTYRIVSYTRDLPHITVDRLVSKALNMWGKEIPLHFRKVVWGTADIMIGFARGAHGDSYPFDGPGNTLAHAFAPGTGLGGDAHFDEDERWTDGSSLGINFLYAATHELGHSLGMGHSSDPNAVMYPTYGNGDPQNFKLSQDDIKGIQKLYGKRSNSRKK
endpoint-name: IC50 (nM)

>>> test_value("COc1ccc(S(=O)(=O)N2[C@@H](C(=O)NO)C(C)(C)SCC[C@H]2c2ccccc2)cc1")
54
>>> test_value("COCCOc1ccc(S(=O)(=O)N2CCCSC(C)(C)[C@@H]2C(=O)NO)cc1")
509
>>> test_value("CC1(C)SCCCN(S(=O)(=O)c2ccc(Br)cc2)[C@H]1C(=O)NO")
17
>>> test_value("COc1ccc(S(=O)(=O)N2CCCCC2C(=O)NO)cc1 (stereo unspecified)")
313
>>> test_value("CCCCCc1ccc(S(=O)(=O)N2CCCSC(C)(C)[C@@H]2C(=O)NO)cc1")
330

(I) COc1ccc(S(=O)(=O)N2CCCSCC2C(=O)NO)cc1 (stereo unspecified)
(II) COc1ccc(S(=O)(=O)N2CCNCC2C(=O)NO)cc1 (stereo unspecified)
(III) COc1ccc(S(=O)(=O)N2CCOCCS(=O)(=O)C(C)(C)[C@@H]2C(=O)NO)cc1
(IV) COc1ccc(S(=O)(=O)N2CCCCC(C)(C)[C@@H]2C(=O)NO)cc1
(V) COc1ccc(S(=O)(=O)N2CCCS(=O)(=O)C(C)(C)[C@@H]2C(=O)NO)cc1
Q: Arrange these compounds by their IC50, starting with the largest number. # list labels per requested ordering
A: II, I, III, V, IV
(II: 2390 nM, I: 1100 nM, III: 183 nM, V: 41 nM, IV: 18 nM)

---

pIC50: −log10 of the molar value.
// endpoint pIC50 / system Neutrophil collagenase (Homo sapiens, UniProt P22894)
endpoint-name: pIC50

>>> test_value("COc1ccc(S(=O)(=O)N2CCCCC(C)(C)[C@@H]2C(=O)NO)cc1")
8.72
>>> test_value("COc1ccc(S(=O)(=O)N2CCCS(=O)(=O)C(C)(C)[C@@H]2C(=O)NO)cc1")
8.62

(P) COc1ccc(S(=O)(=O)N2CCCSC(C)(C)[C@@H]2C(=O)NO)cc1
(Q) COc1ccc(S(=O)(=O)N2CCCSC(C)(C)C2C(=O)NO)cc1 (single isomer, unassigned)
(R) COc1ccc(S(=O)(=O)N2CCCCCSC(C)(C)[C@@H]2C(=O)NO)cc1
Q: Arrange these compounds by their pIC50, starting with the largest number. # list labels per requested ordering
A: R, P, Q

---

// endpoint IC50 / system Interstitial collagenase (Homo sapiens, UniProt P03956)
endpoint-name: IC50 (nM)

Please review the entries below; each comes with its answer.
>>> test_value("COc1ccc(S(=O)(=O)N2CCCSC(C)(C)[C@@H]2C(=O)NO)cc1")
0.8
>>> test_value("COc1ccc(S(=O)(=O)N2CCCC2C(=O)NO)cc1 (stereo unspecified)")
297
>>> test_value("COc1ccc(S(=O)(=O)N2CCCSC(C)(C)C2C(=O)NO)cc1 (single isomer, unassigned)")
7780

(P) COc1ccc(S(=O)(=O)N2CCCSC[C@@]2(C)C(=O)NO)cc1
(Q) COc1ccc(S(=O)(=O)N2CCOCC2C(=O)NO)cc1 (stereo unspecified)
Q: Between P and Q , which one shows the smaller IC50 number? Refer to your chosen item by its label in the answer.
A: Q
(Q: 49.5 nM, P: 217 nM)

(a) COc1ccc(S(=O)(=O)N2[C@@H](C(=O)NO)C(C)(C)SCC[C@H]2c2ccccc2)cc1
(b) COc1ccc(S(=O)(=O)N2CCS(=O)(=O)C(C)(C)[C@@H]2C(=O)NO)cc1
(c) COc1ccc(S(=O)(=O)N2CSCC2C(=O)NO)cc1 (stereo unspecified)
Q: # rank by IC50, ascending (min first) # list labels per requested ordering
A: b, a, c
(b: 13 nM, a: 236 nM, c: 638 nM)

---

pIC50: −log10 of the molar value.
// endpoint pIC50 / system 72 kDa type IV collagenase (Homo sapiens)
endpoint-name: pIC50

>>> test_value("COCCOc1ccc(S(=O)(=O)N2CCCSC(C)(C)[C@@H]2C(=O)NO)cc1")
7.94
>>> test_value("CC1(C)[C@H](C(=O)NO)N(S(=O)(=O)c2ccc(Br)cc2)CCCS1(=O)=O")
7.70
>>> test_value("COc1ccc(S(=O)(=O)N2CCCCC(C)(C)[C@@H]2C(=O)NO)cc1")
8.85
>>> test_value("Cc1cc(Br)ccc1S(=O)(=O)N1CCCSC(C)(C)[C@@H]1C(=O)NO")
7.62
>>> test_value("CCCc1ccc(S(=O)(=O)N2CCCSC(C)(C)[C@@H]2C(=O)NO)cc1")
7.46
>>> test_value("COc1ccc(S(=O)(=O)N2CCSC(C)(C)[C@@H]2C(=O)NO)cc1")
8.85
>>> test_value("COCOC1CSC(C)(C)[C@H](C(=O)NO)N(S(=O)(=O)c2ccc(OC)cc2)C1 (stereo not given in full)")
8.74

(A) COc1ccc(S(=O)(=O)N2CCOCCSC(C)(C)[C@@H]2C(=O)NO)cc1
(B) COc1ccc(S(=O)(=O)N2CCS(=O)(=O)C(C)(C)[C@@H]2C(=O)NO)cc1
Q: Between A and B , which one shows the smaller pIC50 number? Refer to your chosen item by its label in the answer.
A: B

---

// endpoint pIC50 / system Collagenase 3 (Homo sapiens, UniProt P45452)
pIC50: −log10 of the molar value.
endpoint-name: pIC50

>>> test_value("COc1ccc(S(=O)(=O)N2CCSC(C)(C)[C@@H]2C(=O)NO)cc1")
9.00

(a) COc1ccc(S(=O)(=O)N2CCCCCSC(C)(C)[C@@H]2C(=O)NO)cc1
(b) COc1ccc(S(=O)(=O)N2CCCS(=O)(=O)C(C)(C)[C@@H]2C(=O)NO)cc1
Q: Between a and b , which one shows the smaller pIC50 number? Refer to your chosen item by its label in the answer.
A: b
(b: 8.68, a: 9.00)

---

tgt: Interstitial collagenase (Homo sapiens)
Sequence (P03956 whole entry): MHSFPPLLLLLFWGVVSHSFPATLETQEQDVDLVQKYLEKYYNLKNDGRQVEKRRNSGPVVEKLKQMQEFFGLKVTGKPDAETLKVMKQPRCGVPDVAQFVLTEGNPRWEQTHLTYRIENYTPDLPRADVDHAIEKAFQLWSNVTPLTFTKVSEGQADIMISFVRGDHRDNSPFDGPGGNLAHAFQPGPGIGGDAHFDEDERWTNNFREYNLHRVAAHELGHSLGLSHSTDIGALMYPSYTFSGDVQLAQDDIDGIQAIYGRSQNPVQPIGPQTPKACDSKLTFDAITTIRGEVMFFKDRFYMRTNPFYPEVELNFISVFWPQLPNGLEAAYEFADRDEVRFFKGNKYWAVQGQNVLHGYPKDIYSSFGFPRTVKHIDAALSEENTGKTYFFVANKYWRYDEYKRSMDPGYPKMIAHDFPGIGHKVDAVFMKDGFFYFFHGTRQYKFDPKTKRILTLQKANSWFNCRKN
endpoint-name: IC50 (nM)

Please review the entries below; each comes with its answer.
>>> test_value("CC1(C)SCCCN(S(=O)(=O)c2ccc(Oc3ccccc3)cc2)[C@H]1C(=O)NO")
2.3
>>> test_value("CC1(C)[C@H](C(=O)NO)N(S(=O)(=O)c2ccc(Br)cc2)CCCS1(=O)=O")
1.2

(1) CCCCCc1ccc(S(=O)(=O)N2CCCSC(C)(C)[C@@H]2C(=O)NO)cc1
(2) COc1ccc(S(=O)(=O)N2CCCCC(C)(C)[C@@H]2C(=O)NO)cc1
(3) COc1ccc(S(=O)(=O)N2[C@@H](c3ccccc3)CCSC(C)(C)[C@@H]2C(=O)NO)cc1
(4) COc1ccc(S(=O)(=O)N2CCSC(C)(C)[C@@H]2C(=O)NO)cc1
Q: Arrange these compounds by their IC50, starting with the largest number. # list labels per requested ordering
A: 3, 1, 2, 4

(P) COc1ccc(S(=O)(=O)N2CCCSCC2C(=O)NO)cc1 (stereo not drawn)
(Q) CC1(C)SCCCN(S(=O)(=O)c2ccc(-c3ccc(F)cc3)cc2)[C@H]1C(=O)NO
Q: Between P and Q , which one shows the smaller IC50 number? Refer to your chosen item by its label in the answer.
A: Q
